Molecular target: T1, ANAC013 (Arabidopsis thaliana (Mouse-ear cress), UniProt F4IED2)
T1 chain: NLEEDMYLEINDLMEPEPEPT
Assay: ITC 25 C
parameter: pKd
Hey, just a heads up that pKd is the negative log base 10 of the concentration in molar.

[[record]]
binder = "AtTAF4_RST (protein) NPINRNPKQVPFAALLPTLMNQLDKDRALQLRTLYARLKKNEIPKEGFTRHMKDIVGDQMLRMAVSKLQQVNY"
parameter = "pKd"
readoutvalue = 5.97


Proceeding to the next binder to report its pKd.
// sample AtRCD1_RST (protein) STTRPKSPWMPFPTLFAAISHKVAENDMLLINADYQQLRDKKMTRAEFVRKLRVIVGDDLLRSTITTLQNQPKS , its pKd was 8.05
